- MEASURED_ON: human Matrix Metalloproteinase-1 (MMP1), MMP1 (gene 4312) (UniProt P03956)
- Sequence (P03956 whole entry, looked up): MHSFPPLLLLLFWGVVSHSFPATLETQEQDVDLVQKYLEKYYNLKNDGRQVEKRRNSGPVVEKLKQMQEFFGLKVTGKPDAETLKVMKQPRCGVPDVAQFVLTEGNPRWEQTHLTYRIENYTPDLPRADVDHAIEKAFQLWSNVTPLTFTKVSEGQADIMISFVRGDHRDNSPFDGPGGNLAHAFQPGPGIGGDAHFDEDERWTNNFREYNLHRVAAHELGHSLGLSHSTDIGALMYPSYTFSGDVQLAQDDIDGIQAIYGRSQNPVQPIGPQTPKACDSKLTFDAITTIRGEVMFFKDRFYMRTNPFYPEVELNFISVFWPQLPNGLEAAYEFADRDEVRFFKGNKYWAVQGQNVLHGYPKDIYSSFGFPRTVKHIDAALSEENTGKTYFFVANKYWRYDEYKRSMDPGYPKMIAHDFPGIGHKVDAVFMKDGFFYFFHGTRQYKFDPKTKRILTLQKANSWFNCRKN
- ASSAY_NOTES: NVS_ENZ_hMMP1: NovaScreen (NVS) Enzymatic Assay for human Matrix Metalloproteinase-1 (MMP1) (AID 2283181)
Records with an inconclusive call do not appear. Calls of active or inactive are those of the source. The calls were made as follows: active = hit-call score of the fitted dose curve at least 0.9, where 1 is the maximum; inconclusive = response in the unintended direction; inactive = score below 0.9.
Hello, when you answer, please use one of the following outcomes: active, inactive

query: Would you mind telling me which call this test gave CCN(Cc1cccc(S(=O)(=O)O)c1)c1ccc(C(=C2C=CC(=[N+](CC)Cc3cccc(S(=O)(=O)O)c3)C=C2)c2ccccc2S(=O)(=O)[O-])cc1 ?
result: inactive

query: Please state the recorded outcome for this molecule: COC(=O)c1ccccc1O
result: inactive

query: Outcome logged for CN(C)C(=O)C1(N2CCCCC2)CCN(CC[C@@]2(c3ccc(Cl)c(Cl)c3)CN(C(=O)c3ccccc3)CCO2)CC1 in this assay:
result: active

query: Returns: the outcome recorded for CC(=O)O[C@]1(C(C)=O)CC[C@H]2[C@@H]3C=C(Cl)C4=CC(=O)[C@@H]5C[C@@H]5[C@]4(C)[C@H]3CC[C@@]21C in this assay.
result: inactive

query: For this molecule, state the assay outcome: CCc1cc(C2=C(C(=O)O)N(c3ccccc3C(F)(F)F)S(=O)(=O)c3ccccc32)cc2c1OCO2
result: active

query: Would you mind telling me which call this test gave O=C1c2c(O)cccc2Cc2cccc(O)c21 ?
result: active

query: Test call for this molecule, please: CO[C@@H]1COCC[C@@H]1N[C@@H]1CC[C@@](C(=O)N2CCc3ncc(C(F)(F)F)cc3C2)(C(C)C)C1
result: inactive

query: For S=C(S)NCCNC(=S)S.[Mn+2].[S-]C([S-])=NCCN=C([S-])[S-].[Zn+2] , what call appears in the results of this test?
result: inactive

query: Lab log entry: COCCOCCOC — outcome as called in the assay?
result: inactive

query: // param item: C=CCOC(Cn1ccnc1)c1ccc(Cl)cc1Cl (stereo not given) ; yields the recorded call
result: active

Sourced from PubChem BioAssay (EPA / NIEHS)
